meta.source: patent US12077523B2

// each record: one item and its pIC50 for ASK-1 enzyme (Homo sapiens, UniProt Q99683)
pIC50: −log10 of the molar value.
RECORDED_ENDPOINT: pIC50

{"columns": ["SMILES_TEXT", "pIC50"],
 "data": [
  ["CC(C)n1cnnc1-c1cccc(NC(=O)c2ccc(-c3cccs3)[nH]2)n1", 8.10],
  ["Cc1ccc(-c2ccc(C(=O)Nc3cccc(-c4nncn4C(C)C)n3)[nH]2)cc1F", 8.28],
  ["CC(C)n1cnnc1-c1cccc(NC(=O)c2ccc(-c3ccc(F)cc3)[nH]2)n1", 8.23],
  ["CC(C)n1cnnc1-c1cccc(NC(=O)c2ccc(-c3ccc(Cl)cc3)[nH]2)n1", 8.27],
  ["Cc1ccc(C(=O)Nc2cccc(-c3nncn3C(C)C)n2)[nH]1", 7.46],
  ["CC(C)n1cnnc1-c1cccc(NC(=O)c2ccc(-c3ccc(F)c(Cl)c3)[nH]2)n1", 8.28],
  ["Cc1ncc(-c2ccc(C(=O)Nc3cccc(-c4nncn4C(C)C)n3)[nH]2)cn1", 8.00]
]}

[I] Cc1ccc(-c2ccc(C(=O)Nc3cccc(-c4nncn4C(C)C)n3)[nH]2)cc1
[II] Cc1ccc(-c2ccc(C(=O)Nc3cccc(-c4nncn4C(C)C)n3)[nH]2)cc1C
Ask: For I and II , which recorded pIC50 is lower? // caller expects the label of the chosen entry
Reply: I
